# maps each entry to its selectivity ratio
test.details: Selectivity index, ratio of IC50 against human WI38 cells to IC50 for Plasmodium falciparum 3D7
Format: toxicity, cell-based, WI-38
run.parameters: read-out: Ratio IC50
Write the number on its own, no unit after it.

# molecular.string, metric, quantitative.readout
records = [
    ("C=C[C@H]1CN2CC[C@H]1C[C@@H]2[C@@H](O)c1cc(CC[C@@H](C)[C@H]2CC[C@H]3[C@@H]4C[C@H](O)[C@@H]5C[C@H](O)CC[C@]5(C)[C@H]4CC[C@]23C)nc2ccccc12", "selectivity ratio", 77),
    ("C=C[C@H]1CN2CC[C@H]1C[C@H]2[C@H](O)c1cc(CC[C@@H](C)[C@H]2CC[C@H]3[C@@H]4[C@H](OC(C)=O)C[C@@H]5C[C@H](OC(C)=O)CC[C@]5(C)[C@H]4C[C@H](OC(C)=O)[C@]23C)nc2ccccc12", "selectivity ratio", 165),
]

Query compound follows.
Q: Supply reported selectivity ratio belonging to this compound: "C=C[C@H]1CN2CC[C@H]1C[C@H]2[C@H](O)c1cc(CC[C@@H](C)[C@H]2CC[C@H]3[C@@H]4CC[C@@H]5C[C@H](OC(C)=O)CC[C@]5(C)[C@H]4C[C@H](OC(C)=O)[C@]23C)nc2ccc(OC)cc12"
Result: 22

The origin of these recorded values is ChEMBL document CHEMBL3588788.
